Target: ROCK1 (Homo sapiens, UniProt Q13464)
Construct: purchased Invitrogen PV3691
Sequence (Q13464 1-535 limits assumed): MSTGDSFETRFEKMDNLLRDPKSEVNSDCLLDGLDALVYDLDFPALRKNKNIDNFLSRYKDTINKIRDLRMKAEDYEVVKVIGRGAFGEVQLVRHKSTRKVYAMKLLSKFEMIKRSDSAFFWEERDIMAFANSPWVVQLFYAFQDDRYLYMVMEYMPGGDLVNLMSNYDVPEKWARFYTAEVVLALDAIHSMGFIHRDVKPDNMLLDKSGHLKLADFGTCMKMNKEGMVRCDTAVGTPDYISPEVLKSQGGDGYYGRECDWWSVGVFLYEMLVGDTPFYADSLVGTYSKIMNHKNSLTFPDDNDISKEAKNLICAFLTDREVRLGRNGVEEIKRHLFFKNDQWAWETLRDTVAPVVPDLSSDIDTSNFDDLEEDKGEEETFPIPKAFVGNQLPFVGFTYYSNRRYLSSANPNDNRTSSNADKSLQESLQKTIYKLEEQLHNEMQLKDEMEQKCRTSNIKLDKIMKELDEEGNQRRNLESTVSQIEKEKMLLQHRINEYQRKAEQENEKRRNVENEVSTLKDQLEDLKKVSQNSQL
Test: Kinase IC50 assay, HTRF kinEASE STK S2 kit, ROCK1
Assay type: biochemical
Details: ATP 1.5 μM, 2.5 ng/well enzyme, 120 min
Quantity Name: IC50

Structure As Smiles: Cn1c(C#Cc2nccc(Nc3ccc4[nH]ncc4c3)n2)ccc1C(=O)N1CC(F)(F)C1
Assayed Target: ROCK1 (Homo sapiens, UniProt Q13464)
Observed Result: 3.9 µM
//
Structure As Smiles: O=C(c1ccc(C#Cc2nccc(Nc3ccc(-c4cn[nH]c4)cc3)n2)s1)N1CC(F)(F)C1
Assayed Target: ROCK1 (Homo sapiens, UniProt Q13464)
Observed Result: > 100 µM
//
Structure As Smiles: Cc1cc(C(=O)N2CC(F)(F)C2)n(C)c1C#Cc1nc(C)c(F)c(Nc2ccc(-c3cn[nH]c3)c(F)c2)n1
Assayed Target: ROCK1 (Homo sapiens, UniProt Q13464)
Observed Result: 8.8 µM
//
Structure As Smiles: Cc1cnc(C#Cc2ccc(C(=O)N3CC(F)(F)C3)n2C)nc1Nc1ccc(-c2cn[nH]c2)cc1
Assayed Target: ROCK1 (Homo sapiens, UniProt Q13464)
Observed Result: 80 µM
//
Structure As Smiles: O=C(c1cccc(C#Cc2nccc(Nc3ccc(-c4cn[nH]c4)cc3)n2)n1)N1CC(F)(F)C1
Assayed Target: ROCK1 (Homo sapiens, UniProt Q13464)
Observed Result: > 100 µM
//
Structure As Smiles: O=C(c1ccc(C#Cc2nccc(Nc3ccc(-c4cn[nH]c4)cc3)n2)n1C1CC1)N1CC(F)(F)C1
Assayed Target: ROCK1 (Homo sapiens, UniProt Q13464)
Observed Result: 41.9 µM

----------
Target: ROCK2 (Homo sapiens)
Construct: purchased Invitrogen PV3759
Sequence (O75116 5-554 limits assumed): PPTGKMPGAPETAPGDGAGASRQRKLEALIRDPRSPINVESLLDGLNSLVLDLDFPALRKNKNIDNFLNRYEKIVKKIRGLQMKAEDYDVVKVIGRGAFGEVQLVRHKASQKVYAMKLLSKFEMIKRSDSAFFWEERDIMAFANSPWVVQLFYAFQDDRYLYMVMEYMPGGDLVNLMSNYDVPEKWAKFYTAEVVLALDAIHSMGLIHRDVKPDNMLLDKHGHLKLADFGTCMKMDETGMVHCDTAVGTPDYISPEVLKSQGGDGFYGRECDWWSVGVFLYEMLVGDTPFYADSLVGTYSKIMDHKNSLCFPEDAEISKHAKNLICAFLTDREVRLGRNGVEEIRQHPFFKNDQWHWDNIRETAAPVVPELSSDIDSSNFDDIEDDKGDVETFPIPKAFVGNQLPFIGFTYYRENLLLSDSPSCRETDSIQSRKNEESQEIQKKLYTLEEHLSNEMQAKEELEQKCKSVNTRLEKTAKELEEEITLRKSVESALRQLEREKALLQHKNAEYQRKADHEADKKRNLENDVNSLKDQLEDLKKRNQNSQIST
Assay: Kinase IC50 assay, HTRF kinEASE STK S2 kit, ROCK2
Assay type: biochemical
Details: ATP 1 μM, 2.5 ng/well enzyme, 120 min

Structure As Smiles: Cn1c(C#Cc2nccc(Nc3ccc4[nH]ncc4c3)n2)ccc1C(=O)N1CC(F)(F)C1
IC50: 0.303 µM
--
Structure As Smiles: O=C(c1cccc(C#Cc2ncc(F)c(Nc3cc(F)c(-c4cn[nH]c4)cc3F)n2)n1)N1CC(F)(F)C1
IC50: 0.161 µM
--
Structure As Smiles: O=C(c1ccc(C#Cc2nccc(Nc3ccc(-c4cn[nH]c4)cc3)n2)cc1)N1CC(F)(F)C1
IC50: 1.1 µM
--
Structure As Smiles: O=C(c1cccc(C#Cc2nccc(Nc3ccc(-c4cn[nH]c4)cc3)n2)n1)N1CC(F)(F)C1
IC50: 0.206 µM

----------
Molecular target: ROCK2 (Homo sapiens)
Construct: purchased Invitrogen PV3759
Experiment: Kinase IC50 assay, HTRF kinEASE STK S2 kit, ROCK2
Assay type: biochemical
Conditions: ATP 1 μM, 2.5 ng/well enzyme, 120 min

Compound: Cn1nc(C#Cc2nccc(Nc3ccc(-c4cn[nH]c4)cc3)n2)cc1C(=O)N1CC(F)(F)C1 [Compound A17]
Endpoint Unit: µM
IC50: 1.06

Compound: Cc1nc(C#Cc2ccc(C(=O)N3CC(F)(F)C3)n2C)nc(Nc2ccc(-c3cn[nH]c3)cc2)c1C [Compound A6]
Endpoint Unit: µM
IC50: 0.202

Compound: Cc1cnc(C#Cc2ccc(C(=O)N3CC(F)(F)C3)n2C)nc1Nc1ccc(-c2cn[nH]c2)cc1 [Compound A4]
Endpoint Unit: µM
IC50: 0.186

Compound: Cc1c(Nc2ccnc(C#Cc3ccc(C(=O)N4CC(F)(F)C4)n3C)n2)ccc2[nH]ncc12 [Compound A22]
Endpoint Unit: µM
IC50: 3.59
